Test system: Lacticaseibacillus casei
ASSAY: Antibacterial activity against chlorguanide triazine-resistant Lactobacillus casei ATCC 7469 assessed as reduction in growth
Assay type: functional, organism-based
READOUT_KIND: pIC50
Give only the number. pIC50 is defined as minus log10 of concentration in molar units.

Considering CCOC(=O)c1cnc(S)nc1O , its pIC50 with Lacticaseibacillus casei was recorded as 3.24

Reported Lacticaseibacillus casei pIC50 for item Nc1nc(N)c2c(ccc3cc(Br)ccc32)n1 was 7.22

// returns pIC50 for C/C(=C\C(=N\NC(=N)N)c1ccccc1)c1ccccc1 with Lacticaseibacillus casei; value = 4.39

Record N=C(N)NC(=O)Nc1ccc([N+](=O)[O-])cc1 / Lacticaseibacillus casei, pIC50 recorded as 2.74
